System under test: T1, human TREM2 (human, UniProt Q9NZC2 19-174, limits assumed)
T1 construct: also called triggering receptor expressed on myeloid cells 2
T1 sequence: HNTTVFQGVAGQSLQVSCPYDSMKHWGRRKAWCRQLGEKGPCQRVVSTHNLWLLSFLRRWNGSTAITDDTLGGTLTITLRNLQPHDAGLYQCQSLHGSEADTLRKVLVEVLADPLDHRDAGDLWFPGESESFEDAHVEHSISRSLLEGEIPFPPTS
Assay summary: 1st screen, 10 nM Ab
Result type: Binding Signal

Record request: Binding Signal value, item V53 (antibody, V domains shown, also called 6E7 variant V53) VH: EVQLVQSGAEVKKPGESLKISCKGSGYSFTSYWIAWVRQMPGKGLEWMGIIYPGDSDTRYSPHFQGQVTISADKSISTAYLQWSSLKASDTAMYFCARQRTFYYDSSDYFDYWGQGTLVTVSS VL: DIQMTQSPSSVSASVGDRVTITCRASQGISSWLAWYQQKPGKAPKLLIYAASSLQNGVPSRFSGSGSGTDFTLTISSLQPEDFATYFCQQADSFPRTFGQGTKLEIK
1.25 fold over 6E7 parental antibody

// repeat for V76 (antibody, V domains shown, also called 6E7 variant V76; LV-109/HV-110) VH: EVQLVQSGAEVKKPGESLKISCKGSGYSFGSYWIAWVRQMPGKGLEWMGIIYPGDSDTRYSPEFQGQVTISADKSISTAYLQWSSLKASDTAMYFCARQRTFYYDSSDYSDYWGQGTLVTVSS VL: DIQMTQSPSSVSASVGDRVTITCRASQGISSWLAWYQQKPGKAPKLLIYAASSLQKGVPSRFSGSGSGRDFTLTISSLQPEDFATYFCQQADSFPRTFGQGTKLEIK and report
4.57 fold over 6E7 parental antibody

// repeat for V63 (antibody, V domains shown, also called 6E7 variant V63) VH: EVQLVQSGAEVKKPGESLKISCKGSGYSFRSYWIAWVRQMPGKGLEWMGIIYPGDSDTRYSPSFQGQVTISADKSISTAYLQWSSLKASDTAMYFCARSRTFYYDSSDYFDYWGQGTLVTVSS VL: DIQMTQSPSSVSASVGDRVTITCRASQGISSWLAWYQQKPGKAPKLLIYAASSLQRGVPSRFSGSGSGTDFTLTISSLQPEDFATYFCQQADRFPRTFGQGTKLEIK and report
3.76 fold over 6E7 parental antibody

Reference source: patent US20250326839A1
